Biological target: murine NOD1 (Mus musculus, UniProt Q8BHB0)
Construct: expressed in transfected cells; host or cells: HEK293
Sequence (Q8BHB0 1-953): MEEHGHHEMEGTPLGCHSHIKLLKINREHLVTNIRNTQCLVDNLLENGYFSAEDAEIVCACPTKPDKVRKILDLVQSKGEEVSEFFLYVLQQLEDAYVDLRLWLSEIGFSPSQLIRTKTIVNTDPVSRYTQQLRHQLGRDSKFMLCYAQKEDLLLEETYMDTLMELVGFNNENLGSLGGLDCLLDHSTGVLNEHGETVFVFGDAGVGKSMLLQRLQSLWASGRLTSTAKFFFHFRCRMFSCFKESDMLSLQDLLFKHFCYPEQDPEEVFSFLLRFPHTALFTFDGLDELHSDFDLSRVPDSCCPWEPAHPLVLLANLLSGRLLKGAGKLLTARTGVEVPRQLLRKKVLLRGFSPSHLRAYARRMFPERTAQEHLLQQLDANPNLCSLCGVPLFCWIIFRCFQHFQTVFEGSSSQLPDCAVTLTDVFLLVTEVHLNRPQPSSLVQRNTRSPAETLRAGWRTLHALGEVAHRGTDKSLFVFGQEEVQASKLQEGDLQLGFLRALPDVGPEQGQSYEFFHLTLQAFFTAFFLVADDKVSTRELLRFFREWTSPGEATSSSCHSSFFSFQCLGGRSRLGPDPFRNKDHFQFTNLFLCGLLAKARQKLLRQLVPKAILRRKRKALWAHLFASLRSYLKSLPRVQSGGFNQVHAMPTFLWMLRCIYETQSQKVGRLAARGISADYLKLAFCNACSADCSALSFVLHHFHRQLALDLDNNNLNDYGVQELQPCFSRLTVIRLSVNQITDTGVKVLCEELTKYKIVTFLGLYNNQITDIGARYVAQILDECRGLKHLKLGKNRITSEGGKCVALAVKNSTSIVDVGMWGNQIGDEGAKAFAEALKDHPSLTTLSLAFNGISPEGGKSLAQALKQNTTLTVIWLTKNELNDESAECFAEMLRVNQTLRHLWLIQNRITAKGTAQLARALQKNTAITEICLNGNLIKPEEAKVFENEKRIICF
Assay: NOD1 functional agonist assay, 293mNOD1-SEAP reporter cells
Format: cell-based
Conditions: 293mNOD1 cells, OD above 3*O.D of negative control
readout type: mNod1: concentration where a significant mean optical density (OD) can be observed (µg/mL)

Here are 4 compounds together with their reported answers.
compound	units text	result number
CCCCCCC(=O)N[C@H](CCC(=O)N[C@H](CSC[C@H](N)C(=O)O)C(=O)NCC(=O)O)C(=O)O	µg/mL	1
CC(C)[C@H](N)C(=O)N[C@H](CCC(=O)N[C@H](CSC[C@H](N)C(=O)O)C(=O)O)C(=O)O	µg/mL	1
CC[C@@H](C)[C@H](N)C(=O)N[C@H](CCC(=O)N[C@H](CSC[C@H](N)C(=O)O)C(=O)O)C(=O)O	µg/mL	1
CCCCCCC(=O)N[C@H](CCC(=O)N[C@H](CSC[C@H](N)C(=O)O)C(=O)O)C(=O)O	µg/mL	1

(P) N[C@@H](CSC[C@@H](NC(=O)CC[C@@H](NC(=O)[C@@H](N)Cc1ccccc1)C(=O)O)C(=O)O)C(=O)O
(Q) CCCCCCCCCCCCCC(=O)N[C@H](CCC(=O)N[C@H](CSC[C@H](N)C(=O)O)C(=O)O)C(=O)O
(R) CCCCCCCCCCCC(=O)N[C@H](CCC(=O)N[C@H](CSC[C@H](N)C(=O)O)C(=O)O)C(=O)O
(S) CCCCCCCCCCCCCC(=O)N[C@@H](Cc1ccccc1)C(=O)N[C@H](CCC(=O)N[C@H](CSC[C@H](N)C(=O)O)C(=O)O)C(=O)O
(T) CCCCCCCCCCCCCC(=O)N[C@H](CCC(=O)N[C@@H](COC[C@@H](N)C(=O)O)C(=O)O)C(=O)O
Query: Put the compounds in ascending order of mNod1: concentration where a significant mean optical density (OD) can be observed. Sort the labels as requested; that list is your answer.
Reply: Q, T, R, S, P
(Q: 0.001 µg/mL, T: 0.01 µg/mL, R: 0.1 µg/mL, S: 1 µg/mL, P: 10 µg/mL)

(P) CCCCCCCCCCCCCC(=O)N[C@@H](CC(C)C)C(=O)N[C@H](CCC(=O)N[C@H](CSC[C@H](N)C(=O)O)C(=O)O)C(=O)O
(Q) N[C@H](CCC(=O)N[C@H](CSC[C@H](N)C(=O)O)C(=O)NCC(=O)O)C(=O)O
Query: Returns: the argument ( P or Q ) having the larger mNod1: concentration where a significant mean optical density (OD) can be observed. Response format: the label of the selected entry.
Reply: Q
